- measurement-notes: qHTS for Inhibitors of Plasmodium falciparum (7G8) proliferation (AID 504316); also: nearly all actives have a fitted effect of over 65% in size
- details: P. falciparum 7G8 in erythrocytes, SYBR Green DNA, 72 h; series mostly up to 6.7 µM
Results filed as inconclusive are left out. Calls of active or inactive are those of the source. Calls follow the shape of the dose curve; as a rule, active = well fitted inhibition curve with a large enough effect; inconclusive = small, poorly fitted or top-dose-only effect; inactive = flat fitted curve, though single readings scatter.
Hello, when you answer, please use one of the following outcomes: true (active), false (inactive)

For orientation, consider the following solved cases.
{"molecule": "CCOC(=O)CN1C(=O)N[C@@H](c2cccc(C(F)(F)F)c2)[C@H](C(=O)OC)[C@H]1C", "assigned-label": "false"}
{"molecule": "CCCCCCC(=O)Cc1cc(OC)c(OC)cc1C=C(C(=O)OCC)C(=O)OCC", "assigned-label": "false"}
{"molecule": "CCOC(=O)OC[C@H]1O[C@H](c2ccccc2)C=C[C@H]1OC(=O)OCC", "assigned-label": "false"}
{"molecule": "C=CCN1C=C2C(=O)C(C)(OC(=O)c3cccs3)C(=O)C=C2C=C1CCCC(=O)OC (centres undefined)", "assigned-label": "false"}
{"molecule": "COCCN1C=C2C(=O)C(C)(OC(=O)CCc3ccccc3)C(=O)C=C2C=C1c1ccc(C#N)cc1 (centres undefined)", "assigned-label": "false"}

State the result this test recorded for COC(=O)C1=C(C(=O)OC)[C@@H]2N(Cc3ccccc3)c3ccccc3[C@@]23C[C@@H](C(=O)OC)N(S(=O)(=O)c2ccc(C#N)cc2)C3=N1 .
true

State the result this test recorded for COC(=O)C1=C(C)N(CCc2cc(OC)c(OC)c(OC)c2)C(=O)N[C@H]1c1ccccc1 .
false

State the result this test recorded for CC1COc2ccccc2C1=O (centres undefined) .
true

State the result this test recorded for Cc1ccc(S(=O)(=O)N2CCc3nc(-c4ccccc4)c4c(c3C2)CO[C@@H](C)C4)cc1 .
false

====

- target: Cytochrome P450 3A4 (Homo sapiens) (UniProt P08684)
- Sequence (P08684 whole entry, looked up): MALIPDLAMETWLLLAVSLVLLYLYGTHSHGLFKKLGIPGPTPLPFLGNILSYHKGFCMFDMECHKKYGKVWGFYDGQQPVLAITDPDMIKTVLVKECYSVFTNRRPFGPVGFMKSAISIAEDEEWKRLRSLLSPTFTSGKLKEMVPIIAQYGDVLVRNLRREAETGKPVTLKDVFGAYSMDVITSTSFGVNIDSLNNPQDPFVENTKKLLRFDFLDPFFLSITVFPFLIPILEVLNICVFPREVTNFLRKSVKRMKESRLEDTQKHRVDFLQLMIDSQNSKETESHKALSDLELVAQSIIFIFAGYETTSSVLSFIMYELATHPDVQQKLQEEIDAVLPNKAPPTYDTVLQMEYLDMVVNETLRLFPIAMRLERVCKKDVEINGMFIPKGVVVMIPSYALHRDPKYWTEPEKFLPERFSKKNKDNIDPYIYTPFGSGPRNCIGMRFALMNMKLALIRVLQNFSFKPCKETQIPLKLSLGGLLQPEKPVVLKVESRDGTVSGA
- measurement-notes: qHTS Assay for Activators of Cytochrome P450 3A4 (AID 885); also: nearly all actives have a fitted effect of over 65% in size
- details: recombinant CYP3A4, Luciferin-PPXE luminescence, 60 min; series mostly up to 57.1 µM
Calls of active or inactive are those of the source. Calls follow the shape of the dose curve; as a rule, active = well fitted activation curve with a large enough effect; inconclusive = small, poorly fitted or top-dose-only effect; inactive = no such curve, though single readings can be large or run the other way.
measure: activity change, positive = activation

Reference set, count: 7
{"compound": "CCC1=C2CC[C@H]3C(=O)N(CC)C(=O)[C@H]3[C@H]2[C@@]2(Cc3ccccc3)C(=O)N(Cc3ccccc3)C(=O)N2C1=O", "endpoint-result": "inactive"}
{"compound": "CC12C=C(/C=C/c3ccc(C(F)(F)F)cc3)C(C)(C1)C(c1ccc(C(F)(F)F)cc1)CC2=O (stereo not drawn)", "endpoint-result": "-39% [at 11.4 µM] (inactive)"}
{"compound": "COC(=O)[C@@H]1C[C@@]2(O)[C@H](O)[C@H](O)[C@H](O)C[C@H]2N1Cc1ccc(N2CCN(C)CC2)cc1", "endpoint-result": "inactive"}
{"compound": "COc1cc(OC)c2c(=O)c(-c3ccccc3)c(C)oc2c1OC", "endpoint-result": "inactive"}
{"compound": "COc1ccc(-c2cc(=O)c3c(OC(C)=O)cc(OC(C)=O)cc3o2)cc1", "endpoint-result": "inactive"}
{"compound": "CCCCCCN(C(=O)CCCCCN1C(=O)NC(c2ccc(-c3ccccc3)cc2)C(C(=O)OCc2ccccc2)=C1C)C(C(=O)NCCCC)c1cccc(C(=O)OC)c1 (stereo not drawn)", "endpoint-result": "inactive"}
{"compound": "COC(=O)c1ccc(C(NC(=O)OCc2ccccc2)/C(F)=C/[C@@H](C)C(=O)NCCc2c[nH]c3ccc(OC)cc23)cc1 (stereo partly drawn)", "endpoint-result": "inactive"}

Shifting focus to the compound that follows.
Which activity change, positive = activation value belongs to COc1ccc(O[C@H]2C=C[C@@H](c3ccccc3)O[C@H]2COC(=O)CC/C(C)=N\O[C@@H](C)CN2CCCc3nc(C)c(C)cc32)cc1 ?
-97% [at 11.4 µM] (inactive)

====

- target: Cytochrome P450 3A4 (Homo sapiens)
- measurement-notes: qHTS Assay for Activators of Cytochrome P450 3A4 (AID 885); also: nearly all actives have a fitted effect of over 65% in size
- details: recombinant CYP3A4, Luciferin-PPXE luminescence, 60 min; series mostly up to 57.1 µM
Activity calls are given as the source filed them. The call rests on the fitted dose curve; in most records, active means well fitted activation curve with a large enough effect; inconclusive means small, poorly fitted or top-dose-only effect; inactive means no such curve, though single readings can be large or run the other way.
measure: activity change, positive = activation

Reference set, count: 4
{"compound": "[C-]#[N+]/C(C#N)=C\\c1cc(C(C)(C)C)c(O)c(C(C)(C)C)c1", "target": "Cytochrome P450 3A4 (Homo sapiens)", "measure": "activity change, positive = activation", "endpoint-result": "inactive"}
{"compound": "N#Cc1ccc(C23CC4(C2)[C@H](CN(Cc2ccc(-c5ccccc5)cc2)[C@@H]4c2ccccc2)C3c2ccccc2)cc1 (stereo not given in full)", "target": "Cytochrome P450 3A4 (Homo sapiens)", "measure": "activity change, positive = activation", "endpoint-result": "inactive"}
{"compound": "COC(=O)[C@@H]1C[C@H]2CC[C@H](O)C[C@H]2N1Cc1ccc(-c2ccccc2)cc1", "target": "Cytochrome P450 3A4 (Homo sapiens)", "measure": "activity change, positive = activation", "endpoint-result": "inactive"}
{"compound": "COC(=O)c1ccc(C(NC(=O)OCc2ccccc2)/C(F)=C/[C@@H](C)C(=O)NCCO)cc1 (stereo not given in full)", "target": "Cytochrome P450 3A4 (Homo sapiens)", "measure": "activity change, positive = activation", "endpoint-result": "inactive"}

Which activity change, positive = activation value belongs to CCC1=C2CC[C@H]3C(=O)N(CC(=O)OC)C(=O)[C@H]3[C@H]2[C@@]2(Cc3ccccc3)C(=NCCOC)OC(=O)N2C1=O ?
inactive

Which activity change, positive = activation value belongs to COc1ccc(O[C@H]2C=C[C@@H](c3ccccc3)O[C@H]2CO/N=C2/[C@H]3O[C@@H]3[C@@H](O)[C@H]3[C@H]2CCn2c(=O)n(-c4ccccc4)c(=O)n23)cc1 ?
-86.5% [at 11.4 µM] (inactive)

Which activity change, positive = activation value belongs to CC(=O)OC[C@H]1O[C@@H](O/N=C(\C)CCN2CCCCc3nc(C)c(C)cc32)[C@H](OC(C)=O)[C@@H](OC(C)=O)[C@H]1OC(C)=O ?
-53.9% [at 11.4 µM] (inactive)

Which activity change, positive = activation value belongs to COc1cc(C2c3cc4c(cc3C(O)[C@H]3COC(=O)C23)OCO4)cc(OC)c1OC (stereo not given in full) ?
inactive

Which activity change, positive = activation value belongs to CCC1=C(OC(=O)N(CC)CC)N2C(=O)OC(=NCCc3c[nH]c4ccccc34)[C@]2(Cc2ccccc2)[C@H]2C1=CC[C@H]1C(=O)N(c3ccccc3)C(=O)[C@H]12 ?
inactive

Which activity change, positive = activation value belongs to CC(C)=CCC/C(C)=C\COc1c2ccoc2cc2oc(=O)ccc12 ?
inactive

Which activity change, positive = activation value belongs to C#CCCCO/N=C1/C[C@@H](O)[C@@H](O)[C@@H]2[C@@H]3C(=O)N(C[C@@H]4CCCO4)C(=O)[C@H]3CC[C@H]12 ?
-43.2% [at 11.4 µM] (inactive)

Which activity change, positive = activation value belongs to FC(F)(F)c1ccc(CN2C[C@@H]3C(c4ccccc4)C4(c5cccnc5)CC3(C4)[C@H]2c2ccccc2)cc1 (stereo not given in full) ?
inactive

====

- target: Cytochrome P450 3A4 (Homo sapiens)
- measurement-notes: qHTS Assay for Inhibitors and Substrates of Cytochrome P450 3A4 (AID 884); also: nearly all actives have a fitted effect of over 50% in size
- details: recombinant CYP3A4, Luciferin-PPXE luminescence; series mostly up to 57.1 µM
Inconclusive results are not listed. Calls of active or inactive are those of the source. The call rests on the fitted dose curve; in most records, active means well fitted inhibition curve with a large enough effect; inconclusive means small, poorly fitted or top-dose-only effect; inactive means no such curve, though single readings can be large or run the other way.
Hello, when you answer, please use one of the following outcomes: 1.0 = active, 0.0 = inactive

For orientation, consider the following solved cases.
{"compound": "COC(=O)c1ccc(C(NC(=O)OCc2ccccc2)/C(C)=C/[C@@H](C)C(=O)NCc2cccnc2)cc1 (stereo partly drawn)", "assigned-label": 1.0}
{"compound": "CC(=O)OCC(=O)[C@@]1(O)CCC2C3CCC4=CC(=O)CC[C@]4(C)C3C(=O)C[C@]21C (stereo partly drawn)", "assigned-label": 0.0}
{"compound": "CN(C)c1nc(N)c(C(=O)Nc2cccnc2)nc1Cl", "assigned-label": 0.0}
{"compound": "CCC1=C(OC(=O)N(CC)CC)N2C(=O)OC(=NCC(=O)OC)[C@]2(Cc2ccccc2)[C@H]2C1=CC[C@H]1C(=O)N(c3ccccc3)C(=O)[C@H]12", "assigned-label": 1.0}

State the result this test recorded for COC(=O)[C@@H]1C[C@H]2CC[C@H](O)C[C@H]2N1Cc1ccc(Cl)cc1 .
1.0

State the result this test recorded for COC(=O)c1ccc(C(NC(=O)OCc2ccccc2)/C(=C/[C@@H](C)C(=O)NCc2cc(C)on2)c2cccnc2)cc1 (stereo partly drawn) .
1.0

State the result this test recorded for COC(=O)c1ccc(C(NC(=O)OCc2ccccc2)/C(=C/[C@@H](C)C(=O)NCc2ccc(OC)c(O)c2)c2cccnc2)cc1 (stereo partly drawn) .
1.0

State the result this test recorded for COc1ccc(OC2C=CC(C#Cc3ccc(Br)cc3)OC2CO)c(C(C)(C)C)c1 (stereo not drawn) .
1.0
